Assay: Plasma concentrations and pharmacokinetics after IV and PO administration to rats
Type: in vivo, Sprague Dawley rats
Conditions: male, Sprague Dawley, rat, plasma; IV 1 mg/kg, DMSO, based on mean data
Reported values of AUC(0-inf) for individual entries
observation_type: AUC(0-inf) (ng·h/mL)

molecule="Cc1nc(-c2cnccn2)sc1C(=O)c1cnc(N[C@H]2O[C@H](CO)[C@@H](O)[C@H](O)[C@@H]2O)s1 [13 of WO 2014/016361]" observation_type=AUC(0-inf) readout_value=452
molecule="Cc1nc(-c2cnccn2)sc1C(=O)c1cnc(C[C@H]2O[C@H](CO)[C@@H](O)[C@H](O)[C@@H]2O)s1 [Compound 1b]" observation_type=AUC(0-inf) readout_value=267

###

Assay: Plasma concentrations and pharmacokinetics after IV and PO administration to rats
Assay type: in vivo, Sprague Dawley rats
Conditions: male, Sprague Dawley, rat, plasma, po, 10 mg/kg, PO 10 mg/kg, 6 h, mean of 3 rats (BLQ = 0); read-out: Plasma concentration, mean
Protocol: Plasma and faeces concentrations after administration of Compound 1b and for compound 13 of WO 2014/016361 at 1 mg/kg by intravenous route and 10 mg/kg by oral route to Sprague Dawley rats […] Concentrations of the samples are calculated directly from chromatograms after automatic integration by Analyst® 1.5.1 and expressed as ng/mL. […] [formula] “BLQ” stands for “Below the Limit of Quantification” (5 ng/mL for plasma). […]
Reported values of concentration at 6 h for individual entries
observation_type: concentration at 6 h

item_smiles=Cc1nc(-c2cnccn2)sc1C(=O)c1cnc(N[C@H]2O[C@H](CO)[C@@H](O)[C@H](O)[C@@H]2O)s1 readout_value="1.7 ng/mL"
item_smiles=Cc1nc(-c2cnccn2)sc1C(=O)c1cnc(C[C@H]2O[C@H](CO)[C@@H](O)[C@H](O)[C@@H]2O)s1 readout_value="0 ng/mL"

###

Assay: Plasma concentrations and pharmacokinetics after IV and PO administration to rats
Assay type: in vivo, Sprague Dawley rats
Conditions: male, Sprague Dawley, rat, plasma; PO 10 mg/kg, DMSO, based on mean data
Reported values of AUC(0-t) for individual entries
observation_type: AUC(0-t)

item_smiles=Cc1nc(-c2cnccn2)sc1C(=O)c1cnc(C[C@H]2O[C@H](CO)[C@@H](O)[C@H](O)[C@@H]2O)s1 readout_value="0.008 µg·h/mL"
item_smiles=Cc1nc(-c2cnccn2)sc1C(=O)c1cnc(N[C@H]2O[C@H](CO)[C@@H](O)[C@H](O)[C@@H]2O)s1 readout_value="0.016 µg·h/mL"

###

Assay: Plasma concentrations and pharmacokinetics after IV and PO administration to rats
Type: in vivo, Sprague Dawley rats
Details: male, Sprague Dawley, rat, plasma, iv, 1 mg/kg, IV 1 mg/kg, 24 h, mean of 3 rats (BLQ = 0)
observation_type: concentration at 24 h (ng/mL)

item_smiles=Cc1nc(-c2cnccn2)sc1C(=O)c1cnc(C[C@H]2O[C@H](CO)[C@@H](O)[C@H](O)[C@@H]2O)s1 observation_type="concentration at 24 h" readout_value=0
item_smiles=Cc1nc(-c2cnccn2)sc1C(=O)c1cnc(N[C@H]2O[C@H](CO)[C@@H](O)[C@H](O)[C@@H]2O)s1 observation_type="concentration at 24 h" readout_value=0

###

Assay: Faeces concentrations and recovery after IV and PO administration to rats
Type: in vivo, Sprague Dawley rats
Details: Sprague Dawley, rat, faeces, iv, 1 mg/kg, IV 1 mg/kg, 0-24 h, mean of 3 rats; read-out: Recovery in faeces, mean
observation_type: dose excreted (%)

item_smiles=Cc1nc(-c2cnccn2)sc1C(=O)c1cnc(C[C@H]2O[C@H](CO)[C@@H](O)[C@H](O)[C@@H]2O)s1 observation_type="dose excreted" readout_value=8.9
item_smiles=Cc1nc(-c2cnccn2)sc1C(=O)c1cnc(N[C@H]2O[C@H](CO)[C@@H](O)[C@H](O)[C@@H]2O)s1 observation_type="dose excreted" readout_value=13.3

###

Molecular target: FimH lectin domain (residues 1-158) from E. coli strain UTI89 (Escherichia coli, UniProt Q1R2J4)
Construct: FimH lectin domain (residues 1-158) from E. coli strain UTI89
Assay: Isothermal titration calorimetry of FimH lectin domain
pKd: −log10 of the molar value.
observation_type: pKd

molecule="Cc1nc(NCc2cn(CC3OC(CO)C(O)C(O)C3O)nn2)sc1C(=O)c1cnc(NCC2OC(CO)C(O)C(O)C2O)s1 (stereo not shown)" readout_value=7.26

###

Assay: Plasma concentrations and pharmacokinetics after IV and PO administration to rats
Format: in vivo, Sprague Dawley rats
Conditions: male, Sprague Dawley, rat, plasma, po, 10 mg/kg, PO 10 mg/kg, 0.5 h, mean of 3 rats (BLQ = 0); read-out: Plasma concentration, mean
Procedure: Plasma and faeces concentrations after administration of Compound 1b and for compound 13 of WO 2014/016361 at 1 mg/kg by intravenous route and 10 mg/kg by oral route to Sprague Dawley rats […] Concentrations of the samples are calculated directly from chromatograms after automatic integration by Analyst® 1.5.1 and expressed as ng/mL. […] [formula] “BLQ” stands for “Below the Limit of Quantification” (5 ng/mL for plasma). […]
observation_type: concentration at 0.5 h (ng/mL)

item_smiles=Cc1nc(-c2cnccn2)sc1C(=O)c1cnc(C[C@H]2O[C@H](CO)[C@@H](O)[C@H](O)[C@@H]2O)s1 readout_value=7.1
item_smiles=Cc1nc(-c2cnccn2)sc1C(=O)c1cnc(N[C@H]2O[C@H](CO)[C@@H](O)[C@H](O)[C@@H]2O)s1 readout_value=7.8

###

Assay: Faeces concentrations and recovery after IV and PO administration to rats
Assay type: in vivo, Sprague Dawley rats
Details: Sprague Dawley, rat, faeces, po, 10 mg/kg, PO 10 mg/kg, 0-24 h, individual rats PO4-PO6; read-out: Recovery in faeces
Reported values of dose excreted for individual entries
observation_type: dose excreted (%)

item_smiles=Cc1nc(-c2cnccn2)sc1C(=O)c1cnc(N[C@H]2O[C@H](CO)[C@@H](O)[C@H](O)[C@@H]2O)s1 observation_type="dose excreted" readout_value=50.1
item_smiles=Cc1nc(-c2cnccn2)sc1C(=O)c1cnc(C[C@H]2O[C@H](CO)[C@@H](O)[C@H](O)[C@@H]2O)s1 observation_type="dose excreted" readout_value=55.6

###

Test: Plasma concentrations and pharmacokinetics after IV and PO administration to rats
Type: in vivo, Sprague Dawley rats
Conditions: male, Sprague Dawley, rat, plasma; PO 10 mg/kg, DMSO, based on mean data
observation_type: Tmax (min)

compound="Cc1nc(-c2cnccn2)sc1C(=O)c1cnc(N[C@H]2O[C@H](CO)[C@@H](O)[C@H](O)[C@@H]2O)s1 [13 of WO 2014/016361]" readout_value=30
compound="Cc1nc(-c2cnccn2)sc1C(=O)c1cnc(C[C@H]2O[C@H](CO)[C@@H](O)[C@H](O)[C@@H]2O)s1 [Compound 1b]" readout_value=30

###

Assay: Plasma concentrations and pharmacokinetics after IV and PO administration to rats
Assay type: in vivo, Sprague Dawley rats
Settings: male, Sprague Dawley, rat, plasma, po, 10 mg/kg, PO 10 mg/kg, 1 h, mean of 3 rats (BLQ = 0); read-out: Plasma concentration, mean
Reported values of concentration at 1 h for individual entries
observation_type: concentration at 1 h

molecule="Cc1nc(-c2cnccn2)sc1C(=O)c1cnc(N[C@H]2O[C@H](CO)[C@@H](O)[C@H](O)[C@@H]2O)s1 [13 of WO 2014/016361]" observation_type="concentration at 1 h" readout_value="4.4 ng/mL"
molecule="Cc1nc(-c2cnccn2)sc1C(=O)c1cnc(C[C@H]2O[C@H](CO)[C@@H](O)[C@H](O)[C@@H]2O)s1 [Compound 1b]" observation_type="concentration at 1 h" readout_value="4 ng/mL"

###

Reported values of AUC(0-t) for individual entries
Assay: Plasma concentrations and pharmacokinetics after IV and PO administration to rats
Assay type: in vivo, Sprague Dawley rats
Details: male, Sprague Dawley, rat, plasma; IV 1 mg/kg, DMSO, based on mean data
Method: Plasma and faeces concentrations after administration of Compound 1b and for compound 13 of WO 2014/016361 at 1 mg/kg by intravenous route and 10 mg/kg by oral route to Sprague Dawley rats […] Concentrations of the samples are calculated directly from chromatograms after automatic integration by Analyst® 1.5.1 and expressed as ng/mL. […] [formula] “BLQ” stands for “Below the Limit of Quantification” (5 ng/mL for plasma). […]
observation_type: AUC(0-t) (ng·h/mL)

item_smiles=Cc1nc(-c2cnccn2)sc1C(=O)c1cnc(C[C@H]2O[C@H](CO)[C@@H](O)[C@H](O)[C@@H]2O)s1 observation_type=AUC(0-t) readout_unit=ng·h/mL readout_value=266
item_smiles=Cc1nc(-c2cnccn2)sc1C(=O)c1cnc(N[C@H]2O[C@H](CO)[C@@H](O)[C@H](O)[C@@H]2O)s1 observation_type=AUC(0-t) readout_unit=ng·h/mL readout_value=451
